Data credit: patent US11793849B2

Quick reference: MIC50 of the listed items.
# Test system: MDRPA
# PROTOCOL_DETAILS: MIC determination, microdilution broth method;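 also: broth microdilution per NCCLS recommendations, testing Pithecellobium clypearia water or ethanol extracts against multidrug-resistant Pseudomonas aeruginosa, with MIC50 and MIC90 derived statistically from individual MICs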
# EXPERIMENTAL_SETUP: single use; 20 MDRPAs; section of the 10% ethanol extract
Response body: numeric value in µg/mL, unit text excluded.

Q) Short answer please: MIC50, MDRPA, entry CCN1CCN(C(=O)N[C@@H](C(=O)N[C@@H]2C(=O)N3C(C(=O)O)=C(CSc4nnnn4C)CS[C@H]23)c2ccc(O)cc2)C(=O)C1=O [CFP, Cefoperazone]
A) 64

Q) Item NCC[C@H](O)C(=O)N[C@@H]1C[C@H](N)[C@@H](O[C@H]2O[C@H](CN)[C@@H](O)[C@H](O)[C@H]2O)[C@H](O)[C@H]1O[C@H]1O[C@H](CO)[C@@H](O)[C@H](N)[C@H]1O [AMK, Amikacin] with MDRPA - MIC50?
A) 1
